- test name: Pharmacokinetics of LW105-1-1 in mice
- Assay type: in vivo
- test context: mouse, plasma; male C57BL/6 mice, oral gavage 100 mg/kg; read-out: Cmax (head printed as image)
readout kind: Cmax (ng/mL)

> print(dat)
                                   molecule  display.unit  observed.measurement
1  CS(=N)(=O)NCCNc1nonc1C(=NO)Nc1ccc(F)c(Br)c1 (racemic)         ng/mL                 20700

* * *

- test name: Pharmacokinetics of LW105-1-1 in mice
- Format: in vivo
- test context: mouse, plasma; male C57BL/6 mice, intravenous 3 mg/kg; read-out: MRT0-last
- Method: 18 male C57BL/6 mice were intragastrically or intravenously administered with compound LW105-1-1 (Table 3). […] The concentrations of all samples were analyzed using LC-MS/MS. Plasma mean concentrations were processed using a non-compartmental model of WinNonlin™ Version 6.3 (Pharsight, Mountain View, Calif.) pharmacokinetic software, and pharmacokinetic parameters were calculated by linear logarithmic trapezoidal method.
readout kind: MRT last

> print(dat)
                                   molecule  readout.kind  observed.measurement
1  CS(=N)(=O)NCCNc1nonc1C(=NO)Nc1ccc(F)c(Br)c1 (racemic) [LW105-1-1]      MRT last              54.2 min

* * *

- test name: Pharmacokinetics of LW105-1-1 in mice
- Format: in vivo
- test context: mouse, plasma; male C57BL/6 mice, oral gavage 30 mg/kg; read-out: Cmax (head printed as image)
readout kind: Cmax (ng/mL)

> print(dat)
                                   compound  display.unit  observed.measurement
1  CS(=N)(=O)NCCNc1nonc1C(=NO)Nc1ccc(F)c(Br)c1 (racemic) [LW105-1-1]         ng/mL                  4810

* * *

- test name: Pharmacokinetics of LW105-1-1 in mice
- Type: in vivo
- test context: mouse, plasma; male C57BL/6 mice, oral gavage 30 mg/kg
readout kind: Tmax (min)

> print(dat)
                                   molecule  observed.measurement
1  CS(=N)(=O)NCCNc1nonc1C(=NO)Nc1ccc(F)c(Br)c1 (racemic)                    30

* * *

- test name: Pharmacokinetics of LW105-1-1 in mice
- Format: in vivo
- test context: male, C57BL/6, mouse, plasma, po, 30 mg/kg, male C57BL/6 mice, oral gavage 30 mg/kg
readout kind: AUC(0-t)

> print(dat)
                                   compound  readout.kind  observed.measurement
1  CS(=N)(=O)NCCNc1nonc1C(=NO)Nc1ccc(F)c(Br)c1 (racemic)      AUC(0-t)          10.1 µg·h/mL

* * *

Below are IC50 values recorded for IDO1 (Homo sapiens, UniProt P14902).
readout kind: IC50 (nM)

> print(dat)
                                   compound  display.unit  observed.measurement
1  N=S(=O)(NCCNc1nonc1C(=NO)Nc1ccc(F)c(Br)c1)C1CC1 (centres unmarked) [LW105-1-4]            nM                  29.4
2  CS(=N)(=O)NCCNc1nonc1C(=NO)Nc1ccc(F)c(Br)c1 (racemic) [LW105-1-1]            nM                  22.3
